Record set: pIC50 | Lysine-specific histone demethylase 1A (Homo sapiens, UniProt O60341) | literature, multiple sources.
pIC50: −log10 of the molar value.
assay-endpoint: pIC50

N#Cc1ccc(-c2cc(NC[C@H]3CCC[C@H](N)C3)nn2-c2ccc(C(=O)N3CCCC3)cc2)cc1F :: > 6.30
COc1ccc(-c2c(-c3ccc(C#N)c(F)c3)nc3c(NC4CCCNC4)nccn23)cc1F (stereo not drawn) :: 7.92
CC(C)(O)Cn1nnc2cc(-c3c(-c4ccc(C#N)c(F)c4)nc4c(N5[C@@H]6CC[C@H]5C[C@@H](NC(=O)OC(C)(C)C)C6)nccn34)c(F)cc21 :: 8.26
CN(C)C1CCN(c2nc(-c3ccc(C#N)c(F)c3)c(-c3ccc4cn[nH]c4c3)c(=O)n2C)CC1 :: > 7.00
CC(C)n1cnc2cc(-c3ncc(N4CCC(N)CC4)nc3-c3ccc(C#N)c(F)c3)c(F)c(F)c21 :: > 7.00
CN1CC[C@@H](NC(=O)c2cn(-c3ccc4nn(C)c(Cl)c4c3)c(-c3ccc(C#N)c(F)c3)n2)C1 :: > 7.00
NC(=O)CN[C@@H]1C[C@H]1c1ccc(OCc2ccccc2)cc1 (relative stereo) :: > 6.70
Cn1cc2ccc(-n3nc(NC[C@H]4CCC[C@H](N)C4)cc3-c3ccc(C#N)c(F)c3)cc2n1 :: 6.00 to 6.30
Cc1ccc(-c2cnc(N3CCC4(CCNC4)CC3)nc2-c2ccc(C#N)cc2)cc1 :: > 7.00
N#CC1(CN[C@H]2CC2c2ccccc2)CCC1 (stereo partly drawn) :: 7.00 to 7.30
Cc1ccc(-n2nc(C(=O)N3CCC[C@H](N)C3)cc2-c2ccc(C#N)c(F)c2)cc1 :: > 6.30
Cn1c(-c2ccc(C3CC3)cc2)c(-c2ccc(C#N)nc2)nc(N2CCC(N)CC2)c1=O :: > 7.00
Cn1cc2cc(-c3c(-c4ccc(C#N)c(F)c4)cc(C(=O)N4CCC[C@@H](N)C4)n3C[C@@H](O)CO)ccc2n1 :: > 7.00
Cc1cc2c(cc1C#N)c(-c1cncc(N)c1C)cn2C1CCC(O)C1 (single isomer, unassigned) :: 7.82
Cn1c(N2CCC(N)CC2)nc(-c2ccc(C#N)c(F)c2)c(-c2ccc(F)cc2)c1=O :: > 7.00

---

Record set: IC50 | Lysine-specific histone demethylase 1A (Homo sapiens) | literature, multiple sources.
assay-endpoint: IC50

COc1ccc(-n2cc(C(=O)N3CCC[C@@H](N)C3)nc2-c2ccc(C#N)c(F)c2)cc1F :: < 100 nM
c1ccc(C2C[C@@H]2NCC2(c3noc(C4CC5(CCNCC5)C4)n3)CC2)cc1 (stereo partly shown) :: ≤ 50 nM
COc1ccc(-c2c(-c3ccc(C#N)c(F)c3)cc(N3CCC(N)CC3)c(=O)n2CC2CC2)cc1 :: < 100 nM
O=c1c(N2CCNCC2)nc(CCCN[C@@H]2C[C@H]2c2ccc(F)cc2)cn1-c1ccc(-c2cccnn2)cc1 :: 2 nM
N[C@@H](Cc1nc(C2(CN[C@@H]3C[C@H]3c3ccccc3)CC2)no1)C(=O)O :: 100 to 500 nM
CN(C)[C@H]1CCN(C(=O)c2cn(-c3ccc4nn(C)c(Cl)c4c3)c(-c3ccc(C#N)c(F)c3)n2)C1 :: < 100 nM
COc1ccc(-c2c(-c3ccc(C#N)cc3)nc(NC[C@H]3CCNC3)c(=O)n2C)cc1 :: < 100 nM
Cn1cc2cc(-c3sc(N4CCC(N)CC4)nc3-c3ccc(C#N)cc3)ccc2n1 :: ≤ 100 nM
Cn1ccc2cc(-c3ncc(N4CCC(N)CC4)nc3-c3ccc(C#N)c(F)c3)cnc21 :: < 100 nM
COc1ccc(-c2c(-c3ccc(C#N)c(F)c3)cc(NC[C@H]3CCNC3)c(=O)n2C)cc1 :: < 100 nM
Cn1c(-c2ccc(C3CC3)cc2)c(-c2ccc(C#N)c(F)c2)nc(N2CCC(N)CC2)c1=O :: < 100 nM
O=c1[nH]cc(CCCN[C@@H]2C[C@H]2c2ccc(F)cc2)nc1N1CCS(=O)(=O)CC1 :: 9 nM
COc1ccc(-n2nc(NCc3cccc(N)c3)cc2-c2ccc(C#N)c(F)c2)cc1 :: 1000 to 10000 nM
COc1ccc(-c2c(-c3ccc(C#N)c(F)c3)nc(N3CC[C@H](N)C3)n(C)c2=O)cc1F :: < 100 nM
O=C(O)c1ccc(CN2CCC(c3nc(C4(CN[C@H]5C[C@@H]5c5ccccc5)CC4)no3)C2)cc1 (stereo partly shown) :: 100 to 500 nM
COc1ccc(-c2c(-c3ccc(C#N)c(F)c3)nc(N3CCC(N)CC3)n(C)c2=O)cn1 :: < 100 nM
